Assign MIC Staphylococcus aureus (GC 3053) to each entry below.
test system: Staphylococcus sp.; test: in vitro antibacterial evaluation, MIC by broth dilution; format: cell-based; details: strain GC 3053; broth dilution, 18 hours at 35° C.
One number for each entry, in µg/mL.

**Query** // returns reported MIC Staphylococcus aureus (GC 3053) for input CC(c1ccccc1)C1NC(=O)CNC(=O)C(CO)NC(=O)C(C(O)C2CNC(=N)N2C2OC(CO)C(O)C(O)C2O)NC(=O)C(C(O)C2CNC(=N)N2)NC(=O)C(Cc2ccc(OC3OC(CO)C(OC4OC5COC(c6cccc(Oc7cccc(C(F)(F)F)c7)c6)OC5C(O)C4O)C(O)C3O)cc2)NC1=O (stereo not shown)
**Result** 32

# ---- query compound ----
**Query** // returns reported MIC Staphylococcus aureus (GC 3053) for input CC(c1ccccc1)C1NC(=O)CNC(=O)C(CO)NC(=O)C(C(O)C2CNC(=N)N2C2OC(CO)C(O)C(O)C2O)NC(=O)C(C(O)C2CNC(=N)N2)NC(=O)C(Cc2ccc3oc(-c4cccc(F)c4)nc3c2)NC1=O (stereo not shown)
**Result** 16

###

Assign MIC Enterococcus faecium (GC 4556) to each entry below.
test system: Enterococcus sp.; experiment: in vitro antibacterial evaluation, MIC by broth dilution; format: cell-based; details: broth dilution, 18 hours at 35° C.; strain GC 4556
Numbered stars: 1 amine (or outer) side, 2 acyl side, 3 side chain; on linkers, the order of the positions; unused ones are H or OH. Square brackets hold non-standard residues; d marks the D form. Peptide text beside a SMILES is read from it. * marks the point of attachment. ξ: configuration not given here. X1 = N=C1NCC(C(O)C(N[*:1])C(=O)[*:2])N1C1OC(CO)C(O)C(O)C1O; ξEnduracididine(βξ-OH,4'ξ) = N=C1NCC(C(O)C(N)C(=O)O)N1; X2 = OCC1OC(OC2C(CO)OC(*)C(O)C2O)C(O)C(O)C1O

**Query** // returns reported MIC Enterococcus faecium (GC 4556) for input N=C1NCC(C(O)C2NC(=O)C(Cc3ccc(OC4OC(CO)C(OC5OC(CO)C(O)C(O)C5O)C(O)C4O)cc3)NC(=O)C(Cc3ccccc3)NC(=O)CNC(=O)C(CO)NC(=O)C(C(O)C3CNC(=N)N3C3OC(CO)C(O)C(O)C3O)NC2=O)N1 (stereo not drawn) [Example 282] (cyclo(GFY(X2)[ξEnduracididine(βξ-OH,4'ξ)][X1]S); configuration not given here)
**Result** >128 µg/mL

**Query** // returns reported MIC Enterococcus faecium (GC 4556) for input CC(c1ccccc1)C1NC(=O)CNC(=O)C(CO)NC(=O)C(C(O)C2CNC(=N)N2C2OC(CO)C(O)C(O)C2O)NC(=O)C(C(O)C2CNC(=N)N2)NC(=O)C(Cc2ccc(OC3OC(CO)C(OC4OC5COC(CC67CC8CC(CC(C8)C6)C7)OC5C(O)C4O)C(O)C3O)cc2)NC1=O (stereo not drawn)
**Result** 2 µg/mL

Others:
**Query** // returns reported MIC Enterococcus faecium (GC 4556) for input CC(c1ccccc1)C1NC(=O)CNC(=O)C(CO)NC(=O)C(C(O)C2CNC(=N)N2C2OC(CO)C(O)C(O)C2O)NC(=O)C(C(O)C2CNC(=N)N2)NC(=O)C(Cc2ccc(OC3OC(CO)C(OC4OC5COC(c6ccccc6)OC5C(O)C4O)C(O)C3O)cc2)NC1=O (stereo not drawn)
**Result** 2 to 4 µg/mL

###

tested on: Enterococcus sp.; assay: in vitro antibacterial evaluation, MIC by broth dilution; type: cell-based; settings: Enterococcus faecium (GC 2243); broth dilution, 18 hours at 35° C.
quantity measured: MIC Enterococcus faecium (GC 2243) (µg/mL)
Numbers only, in µg/mL.

**Query** Request body: readout MIC Enterococcus faecium (GC 2243), system Enterococcus sp., query CCOc1cc(C2OCC3OC(OC4C(CO)OC(Oc5ccc(CC6NC(=O)C(C(C)c7ccccc7)NC(=O)CNC(=O)C(CO)NC(=O)C(C(O)C7CNC(=N)N7C7OC(CO)C(O)C(O)C7O)NC(=O)C(C(O)C7CNC(=N)N7)NC6=O)cc5)C(O)C4O)C(O)C(O)C3O2)ccc1OC (centres unmarked) . Return the value.
**Result** 32

# ---- query compound ----
**Query** Request body: readout MIC Enterococcus faecium (GC 2243), system Enterococcus sp., query CC(C)CC(=O)OCC1OC(OC2C(CO)OC(Oc3ccc(CC4NC(=O)C(Cc5ccccc5)NC(=O)CNC(=O)C(CO)NC(=O)C(C(O)C5CNC(=N)N5C5OC(CO)C(O)C(O)C5O)NC(=O)C(C(O)C5CNC(=N)N5)NC4=O)cc3)C(O)C2O)C(O)C(O)C1O (centres unmarked) [Example 283c] . Return the value.
**Result** 128

###

test system: Streptococcus sp.; experiment: in vitro antibacterial evaluation, MIC by broth dilution; format: cell-based; settings: broth dilution, 18 hours at 35° C.; strain ATCC 6301
quantity measured: MIC Streptococcus pneumoniae (ATCC 6301)

**Query** // returns reported MIC Streptococcus pneumoniae (ATCC 6301) for input CC(c1ccccc1)C1NC(=O)CNC(=O)C(CO)NC(=O)C(C(O)C2CNC(=N)N2C2OC(CO)C(O)C(O)C2O)NC(=O)C(C(O)C2CNC(=N)N2)NC(=O)C(Cc2ccc(OC3OC(CO)C(OC4OC5COC(CC6CCN(C(=O)OCc7ccccc7)CC6)OC5C(O)C4O)C(O)C3O)cc2)NC1=O (centres unmarked)
**Result** <0.06 µg/mL

Others:
**Query** // returns reported MIC Streptococcus pneumoniae (ATCC 6301) for input CC(c1ccccc1)C1NC(=O)CNC(=O)C(CO)NC(=O)C(C(O)C2CN(Cc3ccc(-c4ccccc4)cc3)C(=N)N2C2OC(CO)C(O)C(O)C2O)NC(=O)C(C(O)C2CNC(=N)N2)NC(=O)C(Cc2ccc(OC3OC(CO)C(OC4OC(CO)C(O)C(O)C4O)C(O)C3O)cc2)NC1=O (centres unmarked) [Example 66a]
**Result** >128 µg/mL

###

Tested on: Escherichia coli
Assay: in vitro antibacterial evaluation, MIC by broth dilution
Assay type: cell-based
Details: Escherichia coli (GC 4560), 18 hours at 35° C.
From the text: Methods for in vitro Antibacterial Evaluation (Table 1) […]
Numbered stars: 1 amine (or outer) side, 2 acyl side, 3 side chain; on linkers, the order of the positions; unused ones are H or OH. Square brackets hold non-standard residues; d marks the D form. Peptide text beside a SMILES is read from it. * marks the point of attachment. ξ: configuration not given here. X1 = N=C1NCC(C(O)C(N[*:1])C(=O)[*:2])N1C1OC(CO)C(O)C(O)C1O; ξEnduracididine(βξ-OH,4'ξ) = N=C1NCC(C(O)C(N)C(=O)O)N1; X2 = OCC1OC(OC2C(CO)OC(*)C(O)C2O)C(O)C(O)C1O; Cha = N[CH](CC1CCCCC1)C(=O)O
Assign MIC Escherichia coli (GC 4560) to each entry below.
Numbers only, in µg/mL.

Below, 4 compounds whose answers are already recorded.
**Query** // returns reported MIC Escherichia coli (GC 4560) for input CC(C)C(=O)OCC1OC(OC2C(CO)OC(Oc3ccc(CC4NC(=O)C(Cc5ccccc5)NC(=O)CNC(=O)C(CO)NC(=O)C(C(O)C5CNC(=N)N5C5OC(CO)C(O)C(O)C5O)NC(=O)C(C(O)C5CNC(=N)N5)NC4=O)cc3)C(O)C2O)C(O)C(O)C1O (stereo not drawn) [Example 283a]
**Result** 32

**Query** // returns reported MIC Escherichia coli (GC 4560) for input CC(C)CC(=O)OC1C(OC2C(CO)OC(Oc3ccc(CC4NC(=O)C(C(C)c5cccs5)NC(=O)CNC(=O)C(CO)NC(=O)C(C(O)C5CNC(=N)N5C5OC(CO)C(O)C(O)C5O)NC(=O)C(C(O)C5CNC(=N)N5)NC4=O)cc3)C(O)C2O)OC(CO)C(O)C1O (stereo not drawn) [Example 265a]
**Result** 4

**Query** // returns reported MIC Escherichia coli (GC 4560) for input CC(=O)OCC1OC(OC2C(CO)OC(Oc3ccc(CC4NC(=O)C(C(C)c5ccccc5)NC(=O)CNC(=O)C(CO)NC(=O)C(C(O)C5CNC(=N)N5C5OC(CO)C(O)C(O)C5O)NC(=O)C(C(O)C5CNC(=N)N5)NC4=O)cc3)C(O)C2O)C(O)C(OC(=O)CCC(C)C)C1O (stereo not drawn) [Example 270b]
**Result** 4

**Query** // returns reported MIC Escherichia coli (GC 4560) for input CCC(C)C(=O)OC1C(CO)OC(OC2C(CO)OC(Oc3ccc(CC4NC(=O)C(C(C)c5ccccc5)NC(=O)CNC(=O)C(CO)NC(=O)C(C(O)C5CNC(=N)N5C5OC(CO)C(O)C(O)C5O)NC(=O)C(C(O)C5CNC(=N)N5)NC4=O)cc3)C(O)C2O)C(O)C1O (stereo not drawn) [Example 278c]
**Result** 2

# ---- query compound ----
**Query** // returns reported MIC Escherichia coli (GC 4560) for input N=C1NCC(C(O)C2NC(=O)C(Cc3ccc(OC4OC(CO)C(OC5OC(CO)C(O)C(O)C5O)C(O)C4O)cc3)NC(=O)C(CC3CCCCC3)NC(=O)CNC(=O)C(CO)NC(=O)C(C(O)C3CNC(=N)N3C3OC(CO)C(O)C(O)C3O)NC2=O)N1 (stereo not drawn) [Example 263] (cyclo(G[Cha]Y(X2)[ξEnduracididine(βξ-OH,4'ξ)][X1]S); configuration not given here)
**Result** 16
